# protocolDetails: PK Phase (Group 2): plasma concentrations and pharmacokinetics of Compound 18 and its metabolite Compound 4 after once daily ocular instillation of Compound 18 nanosuspension for 7 days
# Assay type: in vivo, New Zealand white rabbits
# assayContext: male, New Zealand white, rabbit, plasma, topical or ocular, 0.8 mg/kg, plasma, Day 1, Compound 18 0.8 mg/kg ocular instillation; animal 207666
Catalogue of molecules with associated Tmax
Just the number in min, nothing appended.

| molecule | Tmax (min) |
| --- | --- |
| CCCc1nn(C)c2c(=O)[nH]c(-c3cc(S(=O)(=O)N4CC(CCCO)C4)ccc3OCC)nc12 [Compound 4] | 30 |

As a next step, examine the molecule that follows.
Please list Tmax recorded for the molecule CCCc1nn(C)c2c(=O)[nH]c(-c3cc(S(=O)(=O)N4CC(CCCO[N+](=O)[O-])C4)ccc3OCC)nc12 [Compound 18]
30

Each recorded value in this set is attributed to patent US20220153746A1.
